Molecular target: HNF4alpha8 (COS-7 nuclear extract) (Homo sapiens, UniProt P41235-5 1-452)
Sequence: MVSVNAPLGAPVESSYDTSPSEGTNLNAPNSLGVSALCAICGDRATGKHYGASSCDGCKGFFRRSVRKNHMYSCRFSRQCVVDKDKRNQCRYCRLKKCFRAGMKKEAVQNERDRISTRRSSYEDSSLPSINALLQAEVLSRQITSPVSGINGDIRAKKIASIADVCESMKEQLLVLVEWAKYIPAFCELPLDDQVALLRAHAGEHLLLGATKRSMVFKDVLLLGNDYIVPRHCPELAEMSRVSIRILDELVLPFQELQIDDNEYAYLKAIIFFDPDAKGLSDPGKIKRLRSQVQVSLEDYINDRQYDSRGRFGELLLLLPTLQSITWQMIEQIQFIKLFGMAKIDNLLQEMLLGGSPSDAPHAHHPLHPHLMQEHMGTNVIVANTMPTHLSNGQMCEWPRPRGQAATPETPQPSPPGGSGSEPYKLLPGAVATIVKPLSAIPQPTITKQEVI
Assay: protein-binding microarray; COS-7 nuclear extract on double-stranded Agilent 4x180k PBM; binding buffer, salt, pH and temperature not given in the material; high values mean tight binding
Settings: chain copies: 2; label: 3' end of strand 1 on the slide; dsDNA, one strand shown
The full ranking holds about 18,000 sequences; the median of “log2 normalized intensity” is about 0.36, and the highest 2% start at about 7.3. The list comes from a sample in which the highest values are over-represented; it also holds close analogues and randomly drawn sequences.
For each entry below, report its binding signal value.
Give bare numbers, in log2 normalized intensity.

Record binding signal for all entries; do not skip any.
1. TGGACTTTGGAATTAAGGAGATTTGGCTTTGCCTAGGGAGATTAGAGTATCGGTCGA
2. AGCATGGAGAAAATTCTGGACCTTCTTATCGCCTAGGGAGATTAGAGTATCGGTCGA
3. AGCACCTGAAGAATTTGGACTTTGCACTAAGCCTAGGGAGATTAGAGTATCGGTCGA
4. TGCACTTTGACCGCTCATTTGATCCTCACAGCCTAGGGAGATTAGAGTATCGGTCGA
5. TCTGATACATTGGACAACTGTACTTTGGACGCCTAGGGAGATTAGAGTATCGGTCGA

5.99
1.59
9.19
4.61
8.02

====

Molecular target: HNF4alpha8 (COS-7 nuclear extract) (Homo sapiens, UniProt P41235-5 1-452)
Sequence: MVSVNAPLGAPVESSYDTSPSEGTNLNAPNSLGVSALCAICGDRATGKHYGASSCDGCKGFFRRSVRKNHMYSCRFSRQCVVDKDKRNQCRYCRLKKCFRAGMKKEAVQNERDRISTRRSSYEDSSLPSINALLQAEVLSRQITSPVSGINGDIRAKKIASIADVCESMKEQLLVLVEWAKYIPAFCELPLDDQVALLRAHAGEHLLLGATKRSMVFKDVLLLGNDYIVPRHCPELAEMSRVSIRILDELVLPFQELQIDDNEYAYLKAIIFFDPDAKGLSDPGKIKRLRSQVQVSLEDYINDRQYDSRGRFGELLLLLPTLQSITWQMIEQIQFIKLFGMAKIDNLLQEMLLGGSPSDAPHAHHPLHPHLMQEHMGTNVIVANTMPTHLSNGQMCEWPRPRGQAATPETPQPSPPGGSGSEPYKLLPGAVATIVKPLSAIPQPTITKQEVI
Test: protein-binding microarray; COS-7 nuclear extract on double-stranded Agilent 4x180k PBM; binding buffer, salt, pH and temperature not given in the material; high values mean tight binding
Settings: chain copies: 2; label: 3' end of strand 1 on the slide; dsDNA, one strand shown
In all, about 18,000 sequences were measured (“log2 normalized intensity”: median about 0.36, highest 2% from about 7.3 on). The sample as a whole holds a higher share of the highest values than the screen did.
For each entry below, report its binding signal value.
Write down the value, and be sure its unit follows.

The examples below pair each entry with its known result.
ACCCCTGAATAGGTCTTGGAATGTGACGGCGCCTAGGGAGATTAGAGTATCGGTCGA : 1.5 log2 normalized intensity
TCACCAGGATGGGCCATGACCTTTACCCCCGCCTAGGGAGATTAGAGTATCGGTCGA : 10 log2 normalized intensity
AACGGCCCAGGGTTAGAGGATGACCTTCCCGCCTAGGGAGATTAGAGTATCGGTCGA : 3.71 log2 normalized intensity
GGCATTCTGACCTTTGTCTCCAGGCAAACTGCCTAGGGAGATTAGAGTATCGGTCGA : 5.6 log2 normalized intensity
CTGGTTGGAATTCCAGTGTTCACATCTGATGCCTAGGGAGATTAGAGTATCGGTCGA : 1.09 log2 normalized intensity

Record binding signal for all entries; do not skip any.
1. GTTGGTTTCTGGGATTTGTACAAGTGATTGGCCTAGGGAGATTAGAGTATCGGTCGA
2. AGATGACCTTTGCCCTTGACTTTTTGTGGGGCCTAGGGAGATTAGAGTATCGGTCGA
3. AAAAACACCTGGTTCCTTGCAAGATAAGGGGCCTAGGGAGATTAGAGTATCGGTCGA
4. TTCTTTTTTTTTTTTTTTTTTTTTTGAGATGCCTAGGGAGATTAGAGTATCGGTCGA

1. 1.63 log2 normalized intensity
2. 7.72 log2 normalized intensity
3. -0.239 log2 normalized intensity
4. 3.08 log2 normalized intensity
